Test system: IGROV-1
ASSAY: NCI tumour cell line growth inhibition, 48 h
The source made the active and inactive calls. Cut-off read from the data, not from the text of the source: active = GI50 up to about 1.1 µM and inactive = higher.
PROPERTY: GI50

MOLECULE: COC(=O)C1CC(=O)O[C@H]1c1ccc(OC)c(OC)c1 (stereo partly drawn)
GI50: > 100 µM (inactive)
--
MOLECULE: CC(C)c1ccc2c(c1)/C(=C1/Nc3ccccc3/C1=N/O)C(=O)N2
GI50: 8.73 µM (inactive)
--
MOLECULE: C=C1C(=O)O[C@H]2C1C[C@H](O)/C(C)=C/CC[C@@]1(C)O[C@H]21 (stereo partly drawn)
GI50: 14.8 µM (inactive)
--
MOLECULE: N#CC1C(=O)SC2c3ccccc3C(=O)c3ccccc3C12 (stereo not drawn)
GI50: > 10 µM (inactive)
--
MOLECULE: COC(=O)c1c2c(cc3c1CC1(C3)Cc3cc4c(c(C(C)=O)c3C1)CCC4)C=CC2 (stereo not drawn)
GI50: > 31.6 µM (inactive)
--
MOLECULE: Clc1ccc2c(NCCCC/N=C/c3ccccc3)ccnc2c1
GI50: 11.8 µM (inactive)

Item: CN(C)[C@H]1CC[C@H]2[C@@H]3CCC4C[C@@H](NC(=O)NC(Cc5ccccc5)c5nccs5)CC[C@]4(C)[C@H]3CC[C@]12C (stereo partly drawn) | GI50: 1.87 µM (inactive)

Lab note: measured GI50 of CC1=NN(C(=O)CC(=O)NC(=O)/C=C\c2ccccc2)C(=O)C1/N=N/c1ccc([N+](=O)[O-])cc1 (stereo not drawn) was 58.3 µM (inactive)

Looking up CCOC(=O)CC[C@@H](NC(=O)c1ccc(NCc2ccc3nc(OC)c(OC)nc3c2)cc1)C(=O)OCC , I found its GI50 recorded as 22.5 µM (inactive)

The reported GI50 of the molecule COc1ccc(CC2Cc3ccccc3CC(=O)N2)cc1OC (stereo not drawn) was > 100 µM (inactive)

molecule CC(C)/C(Cl)=N/OC(=O)Nc1ccc(Cl)c(Cl)c1 , GI50 observed: 11.7 µM (inactive)

GI50 recorded for this molecule, CCOP(=O)(OCC)/C(C#N)=C(\C)c1ccco1 , is > 10 µM (inactive)

The measured GI50 associated with COC(=O)C(C(=O)C(=O)Nc1cccc(O)c1)c1nc2ccc(Cl)cc2nc1O (stereo not drawn) reads > 100 µM (inactive)
